- assay.protocol: qHTS assay for small molecule activators of the nuclear factor-kappa B (NF-kB) signaling pathway (AID 651749); note: series mostly up to about 77 µM; % of control where 0% means no effect
- condition.details: NF-kB-bla ME-180 cells, beta-lactamase FRET ratio, 16 h; active compounds read high
Inconclusive results are not listed.
# activation values compiled below
Numbers only here, please. The scale is %.

Consider the reported activation for these compounds:
compound: c1ccoc1
readout.type: activation
test.result: 0.149
--
compound: Cc1cc(-c2cc(C)c(N)c(C)c2)cc(C)c1N
readout.type: activation
test.result: 0.737
--
compound: C(CCOCC1CO1)COCC1CO1 (centres undefined)
readout.type: activation
test.result: 0.765
--
compound: CC(C)[N+](=O)[O-]
readout.type: activation
test.result: -0.258

Note to self: activation recorded for ClC=CCl was 0.173

// activation value for C=CCCC#N : 0.189

Lab note: Clc1cccc2ccccc12 gave activation of 0.856

// activation lookup, compound = O=[N+]([O-])c1cccc(O)c1 , result: -0.57

So, BrCC(Br)(Br)Br ? Its activation was 0.84
